target: UDP-3-O-acyl-N-acetylglucosamine deacetylase (Pseudomonas aeruginosa (strain ATCC 15692 / DSM 22644 / CIP 104116 / JCM 14847 / LMG 12228 / 1C / PRS 101 / PAO1), UniProt P47205); test: LpxC Enzymatic Activity Assay
Sequence (P47205 whole entry): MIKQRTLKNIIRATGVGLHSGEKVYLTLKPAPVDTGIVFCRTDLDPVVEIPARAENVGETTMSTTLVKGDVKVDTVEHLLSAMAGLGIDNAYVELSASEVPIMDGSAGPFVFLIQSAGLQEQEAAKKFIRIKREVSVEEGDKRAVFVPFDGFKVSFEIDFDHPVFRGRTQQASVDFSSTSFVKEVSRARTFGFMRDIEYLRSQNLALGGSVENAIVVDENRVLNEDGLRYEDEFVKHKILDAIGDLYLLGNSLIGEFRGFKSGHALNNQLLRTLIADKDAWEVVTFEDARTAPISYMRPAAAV
pIC50: −log10 of the molar value.
Overview of recorded pIC50 for various molecules

CHEMICAL STRUCTURE: C[C@H](O)c1nccn1Cc1cc(-c2ccc(C#Cc3ccc(N4CCN(C)CC4)cc3)cc2)on1
pIC50: 7.19
--
CHEMICAL STRUCTURE: C[C@H](O)c1nccn1Cc1cc(-c2ccc(C#Cc3ccc(NC4CCOCC4)cc3)cc2)on1
pIC50: 7.17
